- measurementTarget: T1, human CD28 (human, UniProt P10747 19-220)
- T1 construct: whole, on cells; Jurkat/IL2 reporter cells, which endogenously express CD28
- protocolNotes: flow cytometry, Jurkat/IL2 reporter cells (endogenous CD28), 33.3 nM Fc fusion, PE anti-human Fc
attributeMeasured: MFI at 33.3 nM (MFI)
Answers are plain numbers, in MFI.

variant CD80 IgV-Fc (inert) H18F/A26P/E35D/M47I/V68M/A71G/D90G (Fc fusion, not shown: inert human IgG1 Fc) VIHVTKEVKEVATLSCGFNVSVEELPQTRIYWQKDKKMVLTMMSGDINIWPEYKNRTIFDITNNLSIMILGLRPSDEGTYECVVLKYEKGAFKREHLAEVTLSVKAD = 4800

Switching to the query record.
Lab note: measured MFI at 33.3 nM of variant CD80 IgV-Fc (inert) H18Y/E35D/M47V/V68L/A71G/D90G (Fc fusion, not shown: inert human IgG1 Fc) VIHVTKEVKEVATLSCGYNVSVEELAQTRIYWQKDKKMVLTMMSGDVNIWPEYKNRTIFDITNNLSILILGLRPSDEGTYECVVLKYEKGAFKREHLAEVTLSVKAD was 2550
